Please respond with reported EC50 for every item in the list.
Target: Human FXRα Ligand Binding Domain (Homo sapiens)
Construct: polyhistidine (pRSET-A vector leader) (N); made in house; host or cells: E. coli BL21 (DE3), pRSET-A vector
Sequence (Q96RI1 251-486): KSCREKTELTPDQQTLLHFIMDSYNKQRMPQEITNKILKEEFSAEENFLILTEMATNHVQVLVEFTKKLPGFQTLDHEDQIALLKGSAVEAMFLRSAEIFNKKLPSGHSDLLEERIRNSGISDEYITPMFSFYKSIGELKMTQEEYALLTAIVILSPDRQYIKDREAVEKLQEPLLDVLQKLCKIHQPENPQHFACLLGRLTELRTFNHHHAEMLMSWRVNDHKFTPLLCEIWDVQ
Assay: FXR Cofactor Binding Assay (ligand mediated SRC-1 cofactor peptide interaction, time resolved fluorescence)
Assay type: biochemical
Conditions: FXRα LBD / SRC-1 (LCD2, 676-700) peptide, TRF; read-out: Activity (pEC50) (converted)

# annotated cases, reported EC50 shown
Problem: Short answer please: EC50, Human FXRα Ligand Binding Domain (Homo sapiens), entry CC(C)c1onc(-c2c(Cl)cccc2Cl)c1COc1ccc2cc(-c3ccc(C(=O)O)cc3)ccc2c1
Result: 0.102 to 1 µM

Problem: Tell me reported EC50 for Cc1ccc(Cn2ccc3cc(OCc4c(-c5c(Cl)cccc5Cl)noc4C(C)C)ccc32)cc1C(=O)O , tested with Human FXRα Ligand Binding Domain (Homo sapiens).
Result: 0.102 to 1 µM

Problem: Given the entry CC(C)c1onc(-c2c(Cl)cccc2Cl)c1COc1ccc2cc(-c3ccc(C(=O)O)s3)ccc2c1 , what EC50 was observed with Human FXRα Ligand Binding Domain (Homo sapiens)?
Result: 0.102 to 1 µM

New cases:
Problem: Under Human FXRα Ligand Binding Domain (Homo sapiens): EC50 value of CC(C)c1onc(COc2c(F)cc(F)cc2F)c1COc1ccc2c(ccn2Cc2cccc(C(=O)O)c2)c1 ?
Result: 1.02 to 10 µM

====

Please provide measured EC50 for the entries that follow.
Target: Human FXRα Ligand Binding Domain (Homo sapiens)
Construct: polyhistidine (pRSET-A vector leader) (N); made in house; host or cells: E. coli BL21 (DE3), pRSET-A vector
Experiment: FXR Cofactor Binding Assay (ligand mediated SRC-1 cofactor peptide interaction, time resolved fluorescence)
Assay type: biochemical
Settings: FXRα LBD / SRC-1 (LCD2, 676-700) peptide, TRF; read-out: Activity (pEC50) (converted)

The examples below pair each entry with its known result.
Problem: Requested field: EC50. Item: CC(C)c1onc(-c2c(Cl)cccc2Cl)c1COc1ccc2sc(-c3ccc(C(=O)O)cc3)cc2c1
Result: 102 to 1000 nM

Problem: Recorded EC50 of CC(C)c1onc(-c2c(Cl)cccc2Cl)c1COc1ccc2c(c1)CC(c1cccc(C(=O)O)c1)C2 (stereo not shown) , please.
Result: 102 to 1000 nM

Problem: Value lookup for EC50; key = CC(C)c1onc(-c2c(Cl)cccc2Cl)c1COc1ccc2c(c1)CCN(c1cccc(C(=O)O)c1)C2=O
Result: 102 to 1000 nM

Now for the compound whose EC50 we want.
Problem: Which EC50 value is on record for Cc1cccc(C)c1OCc1noc(C(C)C)c1COc1ccc2c(ccn2Cc2cccc(C(=O)O)c2)c1 ?
Result: 102 to 1000 nM
